Test: OV-SAHO Cancer Cell Toxicity qHTS against the NCATS CANVASS Library (AID 1347348); also: nearly all actives have a fitted effect of over 55% in size
Details: OV-SAHO viability, CellTiter-Glo luminescence, 72 h; series mostly up to 38.3 µM
Results filed as inconclusive are left out. Activity calls are given as the source filed them. Calls follow the shape of the dose curve; as a rule, active = well fitted cell-killing curve with a large enough effect; inconclusive = small, poorly fitted or top-dose-only effect; inactive = flat fitted curve, though single readings scatter.
Hello, when you answer, please use one of the following outcomes: 1 (yes) (active), 0 (no) (inactive)

These solved cases illustrate the format of a correct answer.
CC(CCC[C@]1(C)C(=O)C=C[C@@]23C[C@]4(C)O[C@@H](C[C@@H]4[C@H]2O)C31)C(=O)O (stereo partly specified)
0 (no)
Cc1cc(O)cc2c1C(=O)c1c(O)cc(O)cc1C2=O
0 (no)
COc1ccc(-c2oc3cc(OC)cc(OC)c3c(=O)c2O)cc1
0 (no)
C[C@@]1(CCC(=O)Nc2c(O)ccc(C(=O)O)c2O)C(=O)C=C[C@]23C[C@H]4C[C@H](O[C@@]4(C)C2)C31 (stereo partly specified)
0 (no)
C=C1[C@@]2(C)CC3C4(C)CCC(O)C(C)(C)C4CCC3(C)[C@]1(C(=O)OC)C(=O)C(C)(O)C2=O (stereo partly specified)
0 (no)

In: Hi, sorry to bother you, what did the test record for O=C1CC(c2ccc(O)cc2)Oc2cc(O)ccc21 (stereo unspecified) ?
Out: 0 (no)

In: Repeat with CCC(C)=C1OC(=O)[C@H](C)[C@H](O)[C@H](Cc2cccnc2)NC(=O)C(NC(=O)c2ncccc2O)C(C)OC1=O (stereo partly specified)
Out: 0 (no)

###

Target: Nuclear receptor subfamily 1 group I member 3 (Homo sapiens) (UniProt Q14994)
Sequence (Q14994 whole entry, looked up): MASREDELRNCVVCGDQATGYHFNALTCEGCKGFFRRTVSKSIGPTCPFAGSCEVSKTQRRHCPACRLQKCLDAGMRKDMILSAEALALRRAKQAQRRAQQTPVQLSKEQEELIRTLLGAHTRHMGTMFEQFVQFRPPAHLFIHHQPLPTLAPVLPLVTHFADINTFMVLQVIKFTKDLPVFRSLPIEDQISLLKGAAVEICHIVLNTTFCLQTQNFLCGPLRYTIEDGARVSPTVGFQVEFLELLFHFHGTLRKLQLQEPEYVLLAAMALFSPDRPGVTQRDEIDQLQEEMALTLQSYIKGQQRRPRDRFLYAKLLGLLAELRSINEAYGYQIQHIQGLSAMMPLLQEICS
Experiment: qHTS for Constitutive Androstane Receptor (CAR) Antagonist screened against the NCATS CANVASS Library (AID 1347372); also: potency is read from the fitted curve at half-maximal effect
Conditions: HepG2-hCAR-CYP2B6 luciferase, CITCO-stimulated antagonist mode; series mostly up to 46.1 µM
Records with an inconclusive call do not appear. Activity calls are given as the source filed them. Calls come from the whole dose curve; as a rule, active = well fitted inhibition curve with a large enough effect; inconclusive = small, poorly fitted or top-dose-only effect; inactive = no such curve, though single readings can be large or run the other way.
recorded endpoint: Potency

A selection of reference data follows.
O=C1OC(CCO)c2cccc(O)c21 (stereo unspecified)
inactive
COc1cc(C2C3=C(Cc4cc5c(cc42)OCO5)C(=O)OC3)cc(OC)c1OC (stereo unspecified)
117 nM (active)
CC[C@@H](c1cc(OC)c(OC)cc1OC)[C@H](C)[C@@H](/C(C)=C/c1cc(OC)c(OC)cc1OC)c1cc(OC)c(OC)cc1OC
inactive
CC1=C2CC[C@]3(C)[C@H](CC=C4[C@@H]5CC(C)(C)CC[C@@H]5C(=O)[C@H](O)[C@]43C)[C@@]2(C)C=C(O)C1=O
inactive
COc1cc2c(cc1OC)[C@@H](c1ccc3c(c1)OCO3)C(C)[C@@H](C)C2=O (stereo partly specified)
inactive

From here, focus on the item given below.
In: Quick one: Potency for CO[C@H]1[C@@H](OC(=O)/C(C)=C\[C@@H]2O[C@@H]2[C@H]2O[C@H]2C)[C@H](O)[C@H](OCC23C[C@@H]4[C@H](C)CC[C@H]4C4(C=O)CC2C=C(C(C)C)C34C(=O)O)O[C@@H]1C (stereo partly specified) ?
Out: inactive

###

Assay: qHTS drug screen for cell cycle checkpoint inhibitors in PARPi-resistant BRCA-mutant ovarian cancer cell lines. (AID 1963452)
Conditions: PEO1/OlaR viability, CellTiter-Glo luminescence, 96 h; measured here: PEO1 parental Z-AUC; stronger effect = lower value
Threshold -0.6: Z-AUC strictly smaller gives Condition met, otherwise Condition not met.

Look over these answered cases.
OC1CCC([C@H](O)C[C@H]2c3c(F)cccc3-c3cncn32)CC1 (stereo partly specified)
Condition not met
CC(C)(O)c1coc(S(=O)(=O)NC(=O)Nc2c3c(cc4c2CCC4)CCC3)c1
Condition met
CCOc1ccc(Cc2cc([C@@H]3O[C@H](CO)[C@@H](O)[C@H](O)[C@H]3O)ccc2Cl)cc1
Condition not met
C[C@H](CCC(=O)O)[C@H]1CC[C@H]2[C@@H]3[C@@H](O)C[C@@H]4C[C@H](O)CC[C@]4(C)[C@H]3CC[C@]12C
Condition not met
CC(C)[C@H]1C(=O)N[C@@H](CCCN=C(N)N)C(=O)NCC(=O)N[C@@H](CC(=O)O)C(=O)N[C@H](Cc2ccccc2)C(=O)N1C
Condition met

In: Find out if reported Z-AUC for `CCc1cc2c(c(OCC(F)(F)F)c(C(=O)NC3CCN(C(=O)CO)CC3)n2C)c(=O)n1CC(=O)c1ccccc1` is less than -0.6
Out: Condition not met

In: Check `C[C@H](NC(=O)/C(C#N)=C/c1cccc(Br)n1)c1ccccc1` too.
Out: Condition not met

In: Also need `COc1cc2c(Oc3ccc4[nH]c(C)cc4c3F)ccnc2cc1OCC1(N)CC1` , thanks.
Out: Condition not met

In: And the next one, `N=C(N)c1ccc2nc(-c3cc(CC(=O)N[C@@H](CC(=O)O)C(=O)O)cc(-c4cc(S(N)(=O)=O)ccc4O)c3O)[nH]c2c1` ?
Out: Condition not met

In: And what about the compound `C/C=C1\NC(=O)[C@H]2CSSCC/C=C\[C@H](CC(=O)N[C@H](C(C)C)C(=O)N2)OC(=O)[C@H](C(C)C)NC1=O` ?
Out: Condition met
